# polymerase ribozyme fitness (log ratio) values compiled below
B1: TPR 5TU (parent)
chain: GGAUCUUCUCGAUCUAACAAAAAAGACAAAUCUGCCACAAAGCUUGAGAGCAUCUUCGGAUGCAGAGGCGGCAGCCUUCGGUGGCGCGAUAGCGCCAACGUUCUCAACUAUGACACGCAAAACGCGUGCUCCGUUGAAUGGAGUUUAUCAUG

variants of: B1; experiment: polymerase ribozyme fitness, log enrichment relative to wild type (log ratio); higher = more active; in vitro selection for triplet polymerase activity
Fewer inactive variants are shown than the library holds.

Use the examples below as a reference point.
* C87A G112C C116G | ≤ -4.2
* A49U G86A C87G A106C G136U A150C | ≤ -4.2
* G58A C76A G80C C85U A89G U90C U101G C149A | ≤ -4.2
* U33C C54A G83C C108G U146A C149A | ≤ -4.2

[Q] Need polymerase ribozyme fitness (log ratio), item A20G A23C U144G
[A] ≤ -4.2

[Q] Need polymerase ribozyme fitness (log ratio), item C38A C43G C105G C116U
[A] ≤ -4.2

[Q] Need polymerase ribozyme fitness (log ratio), item A60C A73G C93U
[A] ≤ -4.2

[Q] Need polymerase ribozyme fitness (log ratio), item A20U G71A C95A
[A] ≤ -4.2

[Q] Need polymerase ribozyme fitness (log ratio), item G68A A91C A120G A147C
[A] ≤ -4.2

[Q] Need polymerase ribozyme fitness (log ratio), item G74A U77A G92U G112U G124A
[A] ≤ -4.2

[Q] Need polymerase ribozyme fitness (log ratio), item C14A A66U G68A C72G G92U
[A] ≤ -4.2

[Q] Need polymerase ribozyme fitness (log ratio), item A28G A41C C96A U145G
[A] ≤ -4.2

[Q] Need polymerase ribozyme fitness (log ratio), item G25C A66G A106C
[A] ≤ -4.2
